- System: Alopecurus myosuroides (ALOMY)
- PROTOCOL DETAILS: Example B post-emergence herbicidal test, ALOMY
- Assay type: in vivo
- CONDITION DETAILS: Alopecurus myosuroides, 312 h, rate 250 g/ha, evaluated after 13 days, scale 0-100, read-out: Post-emergence activity ALOMY (100=total damage to plant; 0=no damage to plant)
- Method: Seeds of a variety of test species were sown in standard soil in pots. […] After 13 days for pre and post-emergence, the test was evaluated (100=total damage to plant; 0=no damage to plant). […]
Hi! Just check whether pest or weed control at 250 g/ha is below 90%. Below gives 1.0, equal or above gives 0.0.

CC(=O)N1CCC(/C=C2\CC(=O)C(c3c(C)cc(C)cc3C)C2=O)CC1 (centres unmarked) ... 0.0
Cc1cc(C)c(C2C(=O)CC(CC3CCN(C(=O)c4ccco4)C3)C2=O)c(C)c1 (centres unmarked) ... 1.0
Cc1cc(C)c(C2C(=O)CC(CC3CCN(C(=O)OC(C)(C)C)CC3)C2=O)c(C)c1 (centres unmarked) ... 1.0
Cc1cc(C)c(C2=C(OC(=O)C(C)(C)C)CC(CC3CCOC3)C2=O)c(C)c1 (centres unmarked) ... 0.0
Cc1cc(C)c(C2C(=O)CC(CC3CCN(C(=O)c4c(C)noc4C)C3)C2=O)c(C)c1 (centres unmarked) ... 1.0

Consider the record given below.
Task item: Report whether reported pest or weed control at 250 g/ha is lower than 90% (strictly) for Cc1cc(C)c(C2C(=O)CC(CC3CCN(C(=O)N4CCCCC4)CC3)C2=O)c(C)c1 (centres unmarked)
Reply: 1.0

====

- Tested on: Alopecurus myosuroides (ALOMY)
- PROTOCOL DETAILS: Example B post-emergence herbicidal test, ALOMY
- Format: in vivo
- CONDITION DETAILS: Alopecurus myosuroides, 312 h, rate 250 g/ha, evaluated after 13 days, scale 0-100, read-out: Post-emergence activity ALOMY (100=total damage to plant; 0=no damage to plant)
// pest or weed control at 250 g/ha lookup, one value per entry
Hi! Could you send only the number? It should be in %, unit omitted.

Cc1cc(C)c(C2C(=O)CC(CC3CCN(C(=O)C(F)(F)C(F)F)CC3)C2=O)c(C)c1 (centres unmarked) ... 70
Cc1cc(C)c(C2C(=O)CC(CC3CCN(C(=O)C4CCCCC4)CC3)C2=O)c(C)c1 (centres unmarked) ... 30
Cc1cc(C)c(C2C(=O)CC(CC3CCN(C(=O)c4cccs4)CC3)C2=O)c(C)c1 (centres unmarked) ... 30
Cc1cc(C)c(C2=C(OC(=O)OCC(C)C)CC(CC3CCOC3)C2=O)c(C)c1 (centres unmarked) ... 90
Cc1cc(C)c(C2C(=O)CC(CC3CCN(C(=O)c4cccc(Cl)c4)CC3)C2=O)c(C)c1 (centres unmarked) ... 90

// Cc1cc(C)c(C2C(=O)CC(CC3CCN(C(=O)C(Cl)(Cl)Cl)CC3)C2=O)c(C)c1 (centres unmarked) : pest or weed control at 250 g/ha value = 30

The reported value for Cc1cc(-c2ccc(C(F)(F)F)cc2)cc(C)c1C1C(=O)C/C(=C\C2CCOCC2)C1=O (centres unmarked) in terms of pest or weed control at 250 g/ha is 20

Documented pest or weed control at 250 g/ha of Cc1cc(C)c(C2C(=O)CC(CC3CCN(C(=O)C4CC4)C3)C2=O)c(C)c1 (centres unmarked) : 80

====

In this section, each of the compounds is paired with its reported pest or weed control at 250 g/ha.
- Tested on: Echinochloa crus-galli (ECHCG)
- PROTOCOL DETAILS: Example B post-emergence herbicidal test, ECHCG
- Format: in vivo
- CONDITION DETAILS: Echinochloa crus-galli, 312 h, rate 250 g/ha, evaluated after 13 days, scale 0-100, read-out: Post-emergence activity ECHCG (100=total damage to plant; 0=no damage to plant)
- Experimental: Seeds of a variety of test species were sown in standard soil in pots. […] After 13 days for pre and post-emergence, the test was evaluated (100=total damage to plant; 0=no damage to plant). […]
Express it in %; write the number only.

Lab note: Cc1cc(C)c(C2=C(OC(=O)C(C)C)CC(CC3CCOC3)C2=O)c(C)c1 (centres unmarked) gave pest or weed control at 250 g/ha of 100

// pest or weed control at 250 g/ha lookup, compound = Cc1cc(C)c(C2C(=O)C/C(=C\C3CCS(=O)(=O)CC3)C2=O)c(C)c1 (centres unmarked) , result: 80

Item: Cc1cc(C)c(C2=C(OC(=O)C3CC3)CC(CC3CCN(C(=O)C4CC4)C3)C2=O)c(C)c1 (centres unmarked) | pest or weed control at 250 g/ha: 70

For Cc1cc(C)c(C2C(=O)CC(CC3CCN(C(=O)N4CCOCC4)CC3)C2=O)c(C)c1 (centres unmarked) the compound record lists pest or weed control at 250 g/ha as 60

Recorded result, Cc1cc(C)c(C2C(=O)CC(CC3CCC(C)O3)C2=O)c(C)c1 (centres unmarked) , pest or weed control at 250 g/ha: 60

The compound listed as CON1CCC(CC2CC(OC(=O)OC(C)C)=C(c3c(C)cc(C)cc3C)C2=O)CC1 (centres unmarked) has a reported pest or weed control at 250 g/ha of 90

Recorded result, Cc1cc(C)c(C2C(=O)CC(CC3CCN(C(=O)OC(C)(C)C)CC3)C2=O)c(C)c1 (centres unmarked) , pest or weed control at 250 g/ha: 70

Note to self: pest or weed control at 250 g/ha recorded for COC(=O)N1CCC(CC2CC(=O)C(c3c(C)cc(C)cc3C)C2=O)C1 (centres unmarked) was 80

====

- Tested on: Alopecurus myosuroides (ALOMY)
- PROTOCOL DETAILS: Example B post-emergence herbicidal test, ALOMY
- Assay type: in vivo
- CONDITION DETAILS: Alopecurus myosuroides, 312 h, rate 250 g/ha, evaluated after 13 days, scale 0-100, read-out: Post-emergence activity ALOMY (100=total damage to plant; 0=no damage to plant)
- Procedure: Seeds of a variety of test species were sown in standard soil in pots. […] After 13 days for pre and post-emergence, the test was evaluated (100=total damage to plant; 0=no damage to plant). […]
Here, each record is paired with measured pest or weed control at 250 g/ha data.
Number only, in %; omit the unit.

Cc1cc(C)c(C2C(=O)CC(CC3CCN(C(=O)c4ccco4)CC3)C2=O)c(C)c1 (stereo not shown) ... 70

Lab entry: Alopecurus myosuroides (ALOMY) assay, compound Cc1cc(C)c(C2C(=O)CC(CCC3CCOCC3)C2=O)c(C)c1 (stereo not shown) , pest or weed control at 250 g/ha = 90

# value of pest or weed control at 250 g/ha, Alopecurus myosuroides (ALOMY), item CCC(=O)N1CCC(CC2CC(=O)C(c3c(C)cc(C)cc3C)C2=O)CC1 (stereo not shown) = 80

Field pest or weed control at 250 g/ha (Alopecurus myosuroides (ALOMY)), entry Cc1cc(C)c(C2=C(OC(=O)C(C)(C)CCl)CC(CC3CCN(C(=O)C(C)(C)CCl)C3)C2=O)c(C)c1 (stereo not shown) : 80

Considering Cc1cc(C)c(C2C(=O)C/C(=C\C3CCCCN3S(C)(=O)=O)C2=O)c(C)c1 (stereo not shown) , its pest or weed control at 250 g/ha with Alopecurus myosuroides (ALOMY) was recorded as 30

The compound COCC1(CC2CCOC2)CC(=O)C(c2c(C)cc(C)cc2C)C1=O (stereo not shown) on Alopecurus myosuroides (ALOMY): pest or weed control at 250 g/ha was 10

====

Documented pest or weed control at 250 g/ha across a set of compounds
- Test system: Alopecurus myosuroides (ALOMY)
- PROTOCOL DETAILS: Example B post-emergence herbicidal test, ALOMY
- Format: in vivo
- CONDITION DETAILS: Alopecurus myosuroides, 312 h, rate 250 g/ha, evaluated after 13 days, scale 0-100, read-out: Post-emergence activity ALOMY (100=total damage to plant; 0=no damage to plant)
Returns: string containing the number followed by the unit.

Observe how each entry below is paired with its result.
COC(=O)N1CCC(CC2CC(=O)C(c3c(C)cc(C)cc3C)C2=O)CC1 (stereo not shown) [Compound T98] ... 100%
Cc1cc(C)c(C2C(=O)CC(CC3CCS(=O)(=O)CC3)C2=O)c(C)c1 (stereo not shown) [Compound T7] ... 100%
Cc1cc(C)c(C2=C(OC(=O)C(C)(C)C)CC(CC3CCOCC3)C2=O)c(C)c1 (stereo not shown) [Compound P5] ... 100%

--- query ---
So for CCCCC(=O)N1CCC(CC2CC(=O)C(c3c(C)cc(C)cc3C)C2=O)CC1 (stereo not shown) [Compound T85] , the logged pest or weed control at 250 g/ha turned out to be 90%
